Measured values drawn from patent US4487777A for this set.

This listing pairs compounds with measured pest or weed control at 250 µg/mL.
- Tested on: Phytophthora infestans conidia
- procedure summary: whole plant or invertebrate
- Format: in vivo
- condition info: in Solanum lycopersicum, 168 h, read-out: % Control TLB (Tomato Late Blight)

compound	pest or weed control at 250 µg/mL
CC(=O)SCC1CC(=O)N(c2cc(Cl)cc(Cl)c2)C1=O (centres unmarked)	0%
CC(C)(C)S(=O)(=O)C=C1CC(=O)N(c2cc(Cl)cc(Cl)c2)C1=O	6%
COC(=O)CSCC1CC(=O)N(c2cc(Cl)cc(Cl)c2)C1=O (centres unmarked)	39%
O=C1CC(C2SCCS2)C(=O)N1c1cc(Cl)cc(Cl)c1 (centres unmarked)	89%
O=C1CC(=CSc2ccccc2)C(=O)N1c1cc(Cl)cc(Cl)c1	21%
COC(=O)CCSCC1CC(=O)N(c2cc(Cl)cc(Cl)c2)C1=O (centres unmarked)	21%
CC(C)(C)SC=C1CC(=O)N(c2cc(Cl)cc(Cl)c2)C1=O	67%
CCOC(=O)CSCC1CC(=O)N(c2cc(Cl)cc(Cl)c2)C1=O (centres unmarked)	84%
C=C(Cl)CS(=O)(=O)CC1CC(=O)N(c2cc(Cl)cc(Cl)c2)C1=O (centres unmarked)	29%
CCSC=C1CC(=O)N(c2cc(Cl)cc(Cl)c2)C1=O	0%
COC(=O)CCS(=O)(=O)CC1CC(=O)N(c2cc(Cl)cc(Cl)c2)C1=O (centres unmarked)	23%
COC(=O)CS(=O)(=O)CC1CC(=O)N(c2cc(Cl)cc(Cl)c2)C1=O (centres unmarked)	11%
CCOC(=O)CS(=O)(=O)CC1CC(=O)N(c2cc(Cl)cc(Cl)c2)C1=O (centres unmarked)	93%
C=CCS(=O)(=O)CC1CC(=O)N(c2cc(Cl)cc(Cl)c2)C1=O (centres unmarked)	25%

---

- System: Alternaria solani conidia
- procedure summary: Tomato Early Blight control (tomato seedlings, sprayed then inoculated)
- Assay type: in vivo
- condition info: 288 h, 250-ppm solution, tomato (Bonny Best), relative to untreated check plants, read-out: % Control TEB (Tomato Early Blight)
recorded endpoint: pest or weed control at 250 µg/mL (%)

molecule	assay result
CC(=O)SCC1CC(=O)N(c2cc(Cl)cc(Cl)c2)C1=O (centres unmarked) [Compound 5]	57
CC(C)(C)S(=O)(=O)C=C1CC(=O)N(c2cc(Cl)cc(Cl)c2)C1=O [Compound 11]	0
CC(C)(C)SC=C1CC(=O)N(c2cc(Cl)cc(Cl)c2)C1=O [Compound 14]	96
CCOC(=O)CSCC1CC(=O)N(c2cc(Cl)cc(Cl)c2)C1=O (centres unmarked) [Compound 4]	0
CCOC(=O)CS(=O)(=O)CC1CC(=O)N(c2cc(Cl)cc(Cl)c2)C1=O (centres unmarked) [Compound 3]	85
COC(=O)CCSCC1CC(=O)N(c2cc(Cl)cc(Cl)c2)C1=O (centres unmarked) [Compound 7]	89
COC(=O)CCS(=O)(=O)CC1CC(=O)N(c2cc(Cl)cc(Cl)c2)C1=O (centres unmarked) [Compound 2]	96
O=C1CC(=CSc2ccccc2)C(=O)N1c1cc(Cl)cc(Cl)c1 [Compound 12]	0
C=C(Cl)CS(=O)(=O)CC1CC(=O)N(c2cc(Cl)cc(Cl)c2)C1=O (centres unmarked) [Compound 10]	83
O=C1CC(C2SCCS2)C(=O)N1c1cc(Cl)cc(Cl)c1 (centres unmarked) [Compound 8]	98
CCSC=C1CC(=O)N(c2cc(Cl)cc(Cl)c2)C1=O [Compound 13]	94
COC(=O)CSCC1CC(=O)N(c2cc(Cl)cc(Cl)c2)C1=O (centres unmarked) [Compound 6]	80
C=CCS(=O)(=O)CC1CC(=O)N(c2cc(Cl)cc(Cl)c2)C1=O (centres unmarked) [Compound 9]	63
COC(=O)CS(=O)(=O)CC1CC(=O)N(c2cc(Cl)cc(Cl)c2)C1=O (centres unmarked) [Compound 1]	89
